biological target: P2X2R (Homo sapiens); construct: expressed in transfected cells; host or cells: HEK-293; assay: Receptor-mediated calcium entrance assay (Calcium Assay), P2X2R; format: cell-based; details: compound at 5 μM, read-out: Percentage of activity remains in the presence of the compound at 5 μM, P2X2R (Calcium Assay)
Sequence (Q9UBL9 whole entry): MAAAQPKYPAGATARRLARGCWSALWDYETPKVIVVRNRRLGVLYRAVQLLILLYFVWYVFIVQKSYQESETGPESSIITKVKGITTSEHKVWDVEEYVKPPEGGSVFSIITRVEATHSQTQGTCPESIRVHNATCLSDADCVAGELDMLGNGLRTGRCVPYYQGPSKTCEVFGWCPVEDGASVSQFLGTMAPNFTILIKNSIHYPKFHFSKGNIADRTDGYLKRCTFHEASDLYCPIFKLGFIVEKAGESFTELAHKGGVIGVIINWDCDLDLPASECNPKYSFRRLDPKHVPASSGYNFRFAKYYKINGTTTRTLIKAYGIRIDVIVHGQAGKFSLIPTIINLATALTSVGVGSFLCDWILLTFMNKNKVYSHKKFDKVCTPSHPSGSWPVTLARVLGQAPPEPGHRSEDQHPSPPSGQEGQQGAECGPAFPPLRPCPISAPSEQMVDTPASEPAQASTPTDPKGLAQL
Label fulfilled when remaining activity at 5 µM is strictly below 80%; at or above that, label not fulfilled.

Recorded results for 5 compounds are shown here.
O=C1CCC(N2Cc3c(NC(=O)CCc4ccccc4)cccc3C2=O)C(=O)N1 (stereo not shown) ... fulfilled
COc1ccc(S(=O)(=O)N2CCCC(NC(=O)CCc3ccccc3)C2)cc1 (stereo not shown) ... not fulfilled
CC1CCN(c2ccc(S(=O)(=O)N3CCCC(NC(=O)CCc4ccccc4)C3)cc2)CC1 (stereo not shown) ... fulfilled
O=C(CCc1ccccc1)NC1CCCN(S(=O)(=O)c2ccc(F)cc2)C1 (stereo not shown) ... not fulfilled
CCOc1ccc(S(=O)(=O)N2CCCC(NC(=O)CCc3ccccc3)C2)cc1 (stereo not shown) ... not fulfilled

Continue with the next compound.
input: Decide: remaining activity at 5 µM of O=C(CCc1ccccc1)NC1CCCN(S(=O)(=O)c2ccc(N3CCOCC3)cc2)C1 (stereo not shown) strictly below 80%?
output: fulfilled

---

Target: Human P2X1 receptor (P2X1R) (Homo sapiens, UniProt P51575)
Construct: expressed in transfected cells; host or cells: HEK-293
Sequence (P51575 1-399): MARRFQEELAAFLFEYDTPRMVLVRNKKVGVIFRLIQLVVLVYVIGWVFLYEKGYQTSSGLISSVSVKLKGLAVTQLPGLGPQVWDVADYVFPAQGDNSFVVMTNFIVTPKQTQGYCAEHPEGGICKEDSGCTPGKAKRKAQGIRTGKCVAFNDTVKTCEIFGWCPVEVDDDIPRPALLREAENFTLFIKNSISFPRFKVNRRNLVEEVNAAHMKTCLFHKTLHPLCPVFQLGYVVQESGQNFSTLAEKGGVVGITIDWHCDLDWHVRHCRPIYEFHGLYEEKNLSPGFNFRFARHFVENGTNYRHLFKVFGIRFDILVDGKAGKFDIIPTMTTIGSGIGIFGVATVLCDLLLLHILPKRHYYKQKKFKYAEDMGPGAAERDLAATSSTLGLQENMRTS
Test: Receptor-mediated calcium entrance assay (Calcium Assay), P2X1R transfected HEK-293 cells
Assay type: cell-based
Settings: HEK293, compound at 5 μM, ATP 20 μM stimulus, read-out: Percentage of activity remains in the presence of the compound at 5 μM, P2X1R (Calcium Assay)
Assay Endpoint: remaining activity at 5 µM (%)
Kindly provide the numeric value in % only, without the unit symbol.

O=C(NCCc1ccccc1)C1CCN(S(=O)(=O)c2ccc(N3CCCC3)cc2)CC1 [#21] ... 50.2
CC(C)N(C(C)C)S(=O)(=O)c1ccc(N2CCCC(NC(=O)CCc3ccccc3)C2)cc1 (stereo not shown) [#49] ... 65.8
CC(C)(C)OC(=O)N1CCC(C2CCN(c3ccc(S(=O)(=O)N4CCCC(NC(=O)CCc5ccccc5)C4)cc3)CC2)CC1 (stereo not shown) [#41] ... 46.7

Continue with the compound presented below.
input: Item O=C(CCc1ccccc1)NC1CCCN(S(=O)(=O)c2ccc(N3CCCCC3)cc2)C1 (stereo not shown) [#5] has what recorded remaining activity at 5 µM?
output: 59.6
